# Test system: IL-2 release in vivo (T-lymphocytes stimulated by staphylococcal enterotoxin B)
# Design: species or system Balb/c mice
# settings: mouse
parameter: Maximum inhibition of serum IL-2 increase in % (%)
Quick reminder: number only, in %, skip the unit.

CC1(N2Cc3ccccc3C2=O)CCC(=O)NC1=O (racemic) [Example 2] ... 56

Consider the additional compound presented here.
Look up Maximum inhibition of serum IL-2 increase in %: O=C1CCC(N2C(=O)c3ccccc3C2=O)C(=O)N1 (centres unmarked) [Thalidomide, reference compound]
56

---

# Tested on: IL-2 release in vivo (T-lymphocytes stimulated by staphylococcal enterotoxin B)
# Set-up: species or system Balb/c mice
# settings: mouse
parameter: Maximum inhibition of serum IL-2 increase in % (%)
Please reply with the bare figure in % and do not write the unit itself.

CC1(n2sc3ccccc3c2=O)CCCNC1=O (stereo not drawn) [Example 4] ... 52
CC1(N2Cc3ccccc3C2=O)CCC(=O)NC1=O (single isomer, unassigned; (-)) [Example 3 (−) enantiomer] ... 54

# next molecule below
Give the reported Maximum inhibition of serum IL-2 increase in % for CC1(n2[se]c3ccccc3c2=O)CCCNC1=O (stereo not drawn) [Example 1] (system: IL-2 release in vivo (T-lymphocytes stimulated by staphylococcal enterotoxin B)).
43
